List of IC50 values.
Tested on: Human immunodeficiency virus
Assay: Antiviral activity against pseudotyped HIV by luciferase reporter gene assay
Type: functional, organism-based
Details: Human immunodeficiency virus 1

[
  {
    "chemicalSmiles": "CNC(=O)c1c(O)c2ncc(Cc3ccc(F)cc3)cc2n(CC(=O)NC2CC2)c1=O",
    "unitTag": "nM",
    "IC50": 2.6
  },
  {
    "chemicalSmiles": "CCCNC(=O)Cn1c(=O)c(C(=O)NC)c(O)c2ncc(Cc3ccc(F)cc3)cc21",
    "unitTag": "nM",
    "IC50": 5.5
  },
  {
    "chemicalSmiles": "CCNC(=O)Cn1c(=O)c(C(=O)NC)c(O)c2ncc(Cc3ccc(F)cc3)cc21",
    "unitTag": "nM",
    "IC50": 2.9
  },
  {
    "chemicalSmiles": "CNC(=O)c1c(O)c2ncc(Cc3ccc(F)cc3)cc2n(CC(=O)N2CCCC2)c1=O",
    "unitTag": "nM",
    "IC50": 4.9
  },
  {
    "chemicalSmiles": "CNC(=O)c1c(O)c2ncc(Cc3ccc(F)cc3)cc2n(CC(=O)NCC2CC2)c1=O",
    "unitTag": "nM",
    "IC50": 5.9
  },
  {
    "chemicalSmiles": "Cn1c(=O)c(C(=O)NCCO)c(O)c2ncc(Cc3ccc(F)cc3)cc21",
    "unitTag": "nM",
    "IC50": 1.7
  },
  {
    "chemicalSmiles": "CNC(=O)Cn1c(=O)c(C(=O)NC)c(O)c2ncc(Cc3ccc(F)cc3)cc21",
    "unitTag": "nM",
    "IC50": 3.3
  },
  {
    "chemicalSmiles": "COCCNC(=O)c1c(O)c2ncc(Cc3ccc(F)cc3)cc2n(CC(=O)N2CCCC2)c1=O",
    "unitTag": "nM",
    "IC50": 3.8
  },
  {
    "chemicalSmiles": "CNC(=O)c1c(O)c2ncc(Cc3ccc(F)cc3)cc2n(CC(=O)NC(C)(C)C)c1=O",
    "unitTag": "nM",
    "IC50": 4.8
  }
]

----------
Target: Human immunodeficiency virus type 1 integrase (Human immunodeficiency virus 1)
Assay: Inhibition of recombinant HIV-1 integrase by strand-transfer assay
pIC50: −log10 of the molar value.
List of pIC50 values.
outcomeMeasure: pIC50

[
  {
    "molecule": "CCCNC(=O)Cn1c(=O)c(C(=O)NC)c(O)c2ncc(Cc3ccc(F)cc3)cc21",
    "outcomeMeasure": "pIC50",
    "measuredNumber": 8.04
  },
  {
    "molecule": "COCCNC(=O)c1c(O)c2ncc(Cc3ccc(F)cc3)cc2n(CC(=O)N2CCCC2)c1=O",
    "outcomeMeasure": "pIC50",
    "measuredNumber": 7.38
  },
  {
    "molecule": "CNC(=O)c1c(O)c2ncc(Cc3ccc(F)cc3)cc2n(CC(=O)NOC)c1=O",
    "outcomeMeasure": "pIC50",
    "measuredNumber": 8.24
  },
  {
    "molecule": "C[C@@H](CO)NC(=O)c1c(O)c2ncc(Cc3ccc(F)cc3)cc2n(CC(=O)N(C)C)c1=O",
    "outcomeMeasure": "pIC50",
    "measuredNumber": 8.15
  },
  {
    "molecule": "CCN(CC)C(=O)Cn1c(=O)c(C(=O)NC)c(O)c2ncc(Cc3ccc(F)cc3)cc21",
    "outcomeMeasure": "pIC50",
    "measuredNumber": 8.36
  },
  {
    "molecule": "CN(C)C(=O)Cn1c(=O)c(C(=O)NC2CC2)c(O)c2ncc(Cc3ccc(F)cc3)cc21",
    "outcomeMeasure": "pIC50",
    "measuredNumber": 8.52
  },
  {
    "molecule": "COCCNC(=O)c1c(O)c2ncc(Cc3ccc(F)cc3)cc2n(CC(=O)NC2CC2)c1=O",
    "outcomeMeasure": "pIC50",
    "measuredNumber": 8.14
  },
  {
    "molecule": "COCCNC(=O)c1c(O)c2ncc(Cc3ccc(F)cc3)cc2n(CC(=O)NC2CCC2)c1=O",
    "outcomeMeasure": "pIC50",
    "measuredNumber": 8.07
  },
  {
    "molecule": "C[C@@H](O)CNC(=O)c1c(O)c2ncc(Cc3ccc(F)cc3)cc2n(CC(=O)N(C)C)c1=O",
    "outcomeMeasure": "pIC50",
    "measuredNumber": 8.04
  },
  {
    "molecule": "C[C@H](CO)NC(=O)c1c(O)c2ncc(Cc3ccc(F)cc3)cc2n(CC(=O)N(C)C)c1=O",
    "outcomeMeasure": "pIC50",
    "measuredNumber": 8.07
  },
  {
    "molecule": "CNC(=O)c1c(O)c2ncc(Cc3ccc(F)cc3)cc2n(CC(=O)NC2CC2)c1=O",
    "outcomeMeasure": "pIC50",
    "measuredNumber": 8.36
  },
  {
    "molecule": "Cn1c(=O)c(C(=O)NCCO)c(O)c2ncc(Cc3ccc(F)cc3)cc21 [GSK-364735]",
    "outcomeMeasure": "pIC50",
    "measuredNumber": 8.09
  },
  {
    "molecule": "CNC(=O)Cn1c(=O)c(C(=O)NC)c(O)c2ncc(Cc3ccc(F)cc3)cc21",
    "outcomeMeasure": "pIC50",
    "measuredNumber": 8.03
  },
  {
    "molecule": "CN(C)C(=O)Cn1c(=O)c(C(=O)NCCN2CCOCC2)c(O)c2ncc(Cc3ccc(F)cc3)cc21",
    "outcomeMeasure": "pIC50",
    "measuredNumber": 8.07
  },
  {
    "molecule": "CNC(=O)c1c(O)c2ncc(Cc3ccc(F)cc3)cc2n(CC(=O)NC(C)(C)C)c1=O",
    "outcomeMeasure": "pIC50",
    "measuredNumber": 8.16
  },
  {
    "molecule": "CNC(=O)c1c(O)c2ncc(Cc3ccc(F)cc3)cc2n(CC(=O)NCCN(C)C)c1=O",
    "outcomeMeasure": "pIC50",
    "measuredNumber": 7.66
  },
  {
    "molecule": "CCNC(=O)Cn1c(=O)c(C(=O)NC)c(O)c2ncc(Cc3ccc(F)cc3)cc21",
    "outcomeMeasure": "pIC50",
    "measuredNumber": 8.09
  },
  {
    "molecule": "CN(C)C(=O)Cn1c(=O)c(C(=O)NC2(CO)CCCC2)c(O)c2ncc(Cc3ccc(F)cc3)cc21",
    "outcomeMeasure": "pIC50",
    "measuredNumber": 7.64
  },
  {
    "molecule": "CNC(=O)c1c(O)c2ncc(Cc3ccc(F)cc3)cc2n(CC(=O)N(C)C)c1=O",
    "outcomeMeasure": "pIC50",
    "measuredNumber": 8.03
  }
]

----------
List of half-life values.
Assay: Half life in rat at 1 mg/kg, iv as bolus dose
Assay type: ADME, organism-based
Parameters: dose 1 mg/kg, route intravenous
Conditions: in vivo

[
  {
    "chemicalSmiles": "COCCNC(=O)c1c(O)c2ncc(Cc3ccc(F)cc3)cc2n(CC(=O)N(C)C)c1=O",
    "half-life": "12.5 h"
  },
  {
    "chemicalSmiles": "CNC(=O)Cn1c(=O)c(C(=O)NCCOC)c(O)c2ncc(Cc3ccc(F)cc3)cc21",
    "half-life": "3.7 h"
  },
  {
    "chemicalSmiles": "CNC(=O)c1c(O)c2ncc(Cc3ccc(F)cc3)cc2n(CC(=O)N(C)C)c1=O",
    "half-life": "13.8 h"
  }
]

----------
Molecular target: Human immunodeficiency virus type 1 integrase (Human immunodeficiency virus 1, UniProt Q7ZJM1)
Sequence (Q7ZJM1 whole entry): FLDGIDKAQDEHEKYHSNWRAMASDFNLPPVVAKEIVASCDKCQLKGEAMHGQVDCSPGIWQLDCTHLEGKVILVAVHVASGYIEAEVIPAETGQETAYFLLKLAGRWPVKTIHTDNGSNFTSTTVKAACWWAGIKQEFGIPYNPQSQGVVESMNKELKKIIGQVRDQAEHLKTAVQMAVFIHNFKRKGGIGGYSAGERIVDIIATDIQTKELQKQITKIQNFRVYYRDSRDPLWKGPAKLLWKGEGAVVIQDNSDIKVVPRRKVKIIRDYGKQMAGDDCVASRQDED
Test: Inhibition of recombinant HIV-1 integrase by strand-transfer assay
IC50 vs 6 nM: less than gives 1 (yes); not less than gives 0 (no).

[
  {
    "chemicalSmiles": "COCCNC(=O)c1c(O)c2ncc(Cc3ccc(F)cc3)cc2n(CC(=O)N2CCOCC2)c1=O",
    "group": "0 (no)"
  },
  {
    "chemicalSmiles": "C[C@H](O)CNC(=O)c1c(O)c2ncc(Cc3ccc(F)cc3)cc2n(CC(=O)N(C)C)c1=O",
    "group": "1 (yes)"
  },
  {
    "chemicalSmiles": "COCCNC(=O)c1c(O)c2ncc(Cc3ccc(F)cc3)cc2n(CC(=O)NC(C)C)c1=O",
    "group": "0 (no)"
  },
  {
    "chemicalSmiles": "CNC(=O)c1c(O)c2ncc(Cc3ccc(F)cc3)cc2n(CC(=O)N2CCCC2)c1=O",
    "group": "0 (no)"
  },
  {
    "chemicalSmiles": "COCCNC(=O)c1c(O)c2ncc(Cc3ccc(F)cc3)cc2n(CC(=O)N(C)C)c1=O",
    "group": "1 (yes)"
  }
]

From: ChEMBL document CHEMBL3352021
